Provide the reported Inhibition of each item.
tested on: Cryptococcus neoformans; conditions: Concentration 20 uM; ASSAY_TEST Inhibition of Fungal Growth; detection method Resazurin; Absorption (OD600-OD570); plate type 384well; NBS; CORNING #3640
Description: Antifungal activity against Cryptococcus neoformans H99 ATCC 208821 (CO-ADD:FG_002); MIC in YNB media using NBS plates, by Resazurin OD(600-570)
Entries with a potency or affinity are not part of this list.
Please reply with the bare figure in % and do not write the unit itself.

## Task # query: Inhibition of entry O=S(=O)(O)c1ccc2c(c1)C(C(Cl)(Cl)Cl)OC(C(Cl)(Cl)Cl)O2 (stereo not drawn)
## Result -7.32

## Task # query: Inhibition of entry CCOC(=O)C(C)c1c(C(=O)c2ccc(C)nc2)c2ccccc2n1C (stereo not drawn)
## Result -10.08

## Task # query: Inhibition of entry Cc1nnc2nc(-c3ccccc3)nc(-c3ccccc3)n12
## Result -11.59

## Task # query: Inhibition of entry Cc1ccc(C(=N)Nc2ccccc2)cc1
## Result -4.07

## Task # query: Inhibition of entry COC1OCC(O)C(NC(=O)N(C)N=O)C1O (stereo not drawn)
## Result -2.94

## Task # query: Inhibition of entry CCC(C)n1c(C)cc(=O)n1C(C)CC (stereo not drawn)
## Result -4.99

## Task # query: Inhibition of entry CC1(C)C2CCC(CN=C(N)CSS(=O)(=O)O)C1C2 (stereo not drawn)
## Result -13.54

## Task # query: Inhibition of entry Nc1ccc2c(c1)nnn2-c1ccccc1
## Result -12.32

====

tested on: Candida albicans; details: 20 µM
Description: Antifungal activity against Candida albicans ATCC 90028 (CO-ADD:FG_001); MIC in YNB media using NBS plates, by OD630
Measured potencies and affinities stand elsewhere.
quantity: Inhibition (%)
Please reply with the bare figure in % and do not write the unit itself.

## Task # query: Inhibition of entry Cc1c(C(C)(C(=O)O)c2c(C)n(C)c3ccccc23)c2ccccc2n1C
## Result 9.04

## Task # query: Inhibition of entry C(=C\CSc1ccccn1)/CSc1ccccn1
## Result 2.49

## Task # query: Inhibition of entry Cc1ccc(/N=N/c2ccc(N)cc2C)c(S(N)(=O)=O)c1
## Result 2.21

## Task # query: Inhibition of entry CCOC(=O)/C(=N\O)C1=CSC2=NNC(C)(C)N12
## Result 5.91

## Task # query: Inhibition of entry OCC1(CO)COC2(CCCC2)N1
## Result -1.93

## Task # query: Inhibition of entry O=c1c(O)cccc2cc(O)c(O)c(O)c12 [PURPUROGALLIN]
## Result 53.6

## Task # query: Inhibition of entry O=C1C(Cl)=C(O)C2(Cl)C(Cl)=C(Cl)C12Cl (stereo not given)
## Result 9.34

## Task # query: Inhibition of entry CCCCCOc1ccc(N2C(=O)C(C)CNC2=S)cc1 (stereo not given)
## Result -1.3

## Task # query: Inhibition of entry Clc1nnc(NC2CCCCC2)c(Cl)c1Cl
## Result 27.2

## Task # query: Inhibition of entry Cc1nc2ccnn2c(O)c1CCc1ccccc1
## Result 5.45

====

Provide the reported Inhibition of each item.
test system: Staphylococcus aureus; test: Antibacterial activity against Staphylococcus aureus MRSA ATCC 43300 (CO-ADD:GP_020); MIC in CAMBH media using NBS plates, by Resazurin F(560/590); assay type: functional; settings: Concentration 20 uM, ASSAY_TEST Inhibition of Bacterial Growth, detection method Resazurin, Fluorescence (ex560/em590), MEDIA CAMHB, plate type 384well, CORNING #3640, time 18 hr
Please reply with the bare figure in % and do not write the unit itself.

## Task # query: Inhibition of entry COc1cc(NC(=O)c2cc3ccccc3cc2O)c(OC)cc1Cl
## Result 15.9

## Task # query: Inhibition of entry COc1cc(NC(C)=O)c2ncccc2c1Br
## Result 8.44

## Task # query: Inhibition of entry COc1ccc(C2=NC(=O)NC2c2ccc(OC)cc2)cc1 (configuration not stated)
## Result 6.62

## Task # query: Inhibition of entry Cc1ccc(C)c(N2CCN(c3ccncc3N)CC2)c1
## Result -5.41

## Task # query: Inhibition of entry Cc1ccc(S(=O)(=O)N2CC=C(N)N2)cc1
## Result 16.25

## Task # query: Inhibition of entry Cc1ccccc1N=C(S)Nc1ccccn1
## Result -11.3

## Task # query: Inhibition of entry O=C(O)C(Cc1ccccc1N(CCO)CCO)N1C(=O)c2ccccc2C1=O (configuration not stated)
## Result 11.82
